Reported IC50 is given for each of the following molecules.
# MEASUREMENT TARGET: human SCD5 (Homo sapiens, UniProt Q86SK9)
# Construct: expressed in transfected cells; host or cells: yeast strain with OLE1 deleted, plasmid-borne human SCD5 (selected in SD-Ura)
# Sequence (Q86SK9 1-330): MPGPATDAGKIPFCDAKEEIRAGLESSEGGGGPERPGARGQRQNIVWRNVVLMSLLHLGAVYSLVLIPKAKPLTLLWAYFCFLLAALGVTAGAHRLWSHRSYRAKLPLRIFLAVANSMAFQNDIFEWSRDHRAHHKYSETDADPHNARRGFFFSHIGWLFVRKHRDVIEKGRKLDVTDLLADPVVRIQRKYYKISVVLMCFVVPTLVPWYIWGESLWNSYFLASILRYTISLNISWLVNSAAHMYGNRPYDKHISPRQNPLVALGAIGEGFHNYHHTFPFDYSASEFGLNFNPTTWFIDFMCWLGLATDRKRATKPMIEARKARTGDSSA
# MEASUREMENT NOTES: Growth inhibition of yeast strain expressing human SCD5 as sole desaturase (OLE1 deleted), OD600 readout
# Assay type: cell-based
# CONDITION DETAILS: yeast strain expressing human SCD5 as sole desaturase; growth (OD600) after 40 h at 30° C.; read-out: SCD5 IC50
READOUT NAME: IC50

| MOLECULE | MEASUREMENT TARGET | RESULT |
| --- | --- | --- |
| Cc1nccc(C(=O)Nc2ccc(Cc3cccc(F)c3)cn2)n1 [Compound 144] | human SCD5 (Homo sapiens, UniProt Q86SK9) | 10 nM |
| Cn1nc(OC(=O)N2CCC(Oc3cccc(Cl)c3)CC2)ccc1=O [Compound 307] | human SCD5 (Homo sapiens, UniProt Q86SK9) | 570 nM |
| Cc1nc(NC(=O)C2=NN(C)C(=O)CC2)sc1Cc1cccc(F)c1 [Compound 219] | human SCD5 (Homo sapiens, UniProt Q86SK9) | 1350 nM |
| Cn1nc(C(=O)Nc2ccc(CCc3cccc(Cl)c3)cn2)ccc1=O [Compound 297] | human SCD5 (Homo sapiens, UniProt Q86SK9) | 1200 nM |
| CN1N=C(C(=O)Nc2ncc(C(C)(O)c3cccc(F)c3)s2)CCC1=O (stereo not drawn) [Compound 419] | human SCD5 (Homo sapiens, UniProt Q86SK9) | > 45000 nM |
| Cn1c(C(=O)Nc2ccc(Cc3ccc(F)c(F)c3)cn2)coc1=O [Compound 508] | human SCD5 (Homo sapiens, UniProt Q86SK9) | 450 nM |
| O=C(Nc1ccc(Cc2cccc(F)c2)cn1)c1coc(Cl)n1 [Compound 645] | human SCD5 (Homo sapiens, UniProt Q86SK9) | 210 nM |
| CN1N=C(C(=O)Nc2ccc(Cc3ccc(C#N)c(Cl)c3)cn2)CCC1=O [Example 33] | human SCD5 (Homo sapiens, UniProt Q86SK9) | 18000 nM |
| Cn1nc(C(=O)Nc2ccc(Cc3cc(C#N)ccc3F)cn2)ccc1=O [Compound 641] | human SCD5 (Homo sapiens, UniProt Q86SK9) | 540 nM |
| CN1N=C(C(=O)Oc2ccc(NCc3cccc(F)c3)nc2)CCC1=O [Compound 433] | human SCD5 (Homo sapiens, UniProt Q86SK9) | > 45000 nM |
| CC(=O)C1CN(C(=O)Nc2ccc(Cc3cccc(Cl)c3)cn2)C1 [Compound 403] | human SCD5 (Homo sapiens, UniProt Q86SK9) | > 45000 nM |
| Cn1cc(C(=O)Nc2ccc(Cc3cccc(F)c3)cn2)n(C)c1=O [Compound 642] | human SCD5 (Homo sapiens, UniProt Q86SK9) | 10 nM |
| Cn1nc(C(=O)Nc2ccc(Cc3cccc(F)c3F)cn2)ccc1=O [Compound 551] | human SCD5 (Homo sapiens, UniProt Q86SK9) | 1200 nM |
| Cn1cc(C(=O)Nc2ccc(Oc3ccc(F)c(Cl)c3)cn2)ccc1=O [Compound 167] | human SCD5 (Homo sapiens, UniProt Q86SK9) | 930 nM |
| O=C(Nc1ccc(Cc2cc(F)cc(F)c2)cn1)c1cnc(Cl)cn1 [Compound 635] | human SCD5 (Homo sapiens, UniProt Q86SK9) | 62 nM |
| COCc1ncc(C(=O)Nc2ccc(Cc3cccc(Cl)c3)cn2)c(OC)n1 [Compound 110] | human SCD5 (Homo sapiens, UniProt Q86SK9) | 220 nM |
| N#Cc1nc(C(=O)Nc2ccc(Cc3cc(F)cc(F)c3)cn2)co1 [Compound 683] | human SCD5 (Homo sapiens, UniProt Q86SK9) | 3900 nM |
| Cc1cc(C(=O)Nc2ccc(Cc3cc(F)cc(F)c3)cn2)cn(C)c1=O [Compound 676] | human SCD5 (Homo sapiens, UniProt Q86SK9) | 10 nM |

###

# MEASUREMENT TARGET: human SCD5 (Homo sapiens)
# Construct: expressed in transfected cells; host or cells: yeast strain with OLE1 deleted, plasmid-borne human SCD5 (selected in SD-Ura)
# MEASUREMENT NOTES: Growth inhibition of yeast strain expressing human SCD5 as sole desaturase (OLE1 deleted), OD600 readout
# Type: cell-based
# CONDITION DETAILS: yeast strain expressing human SCD5 as sole desaturase; growth (OD600) after 40 h at 30° C.; read-out: SCD5 IC50
Reported IC50 is given for each of the following molecules.

| MOLECULE | VALUE UNITS | READOUT QUALIFIER | IC50 |
| --- | --- | --- | --- |
| CN1N=C(C(=O)Nc2ccc(Cc3cccc(C=O)c3)cn2)CCC1=O [Compound 440] | nM | > | 45000 |
| C[C@H](O)c1ccc(C(=O)Nc2ccc(Cc3cccc(Cl)c3)cn2)cn1 [Compound 519] | nM | = | 220 |
| O=C(Nc1ccc(CC2CCCCC2)cn1)c1ccc(CO)nc1 [Compound 375] | nM | = | 10 |
| Cn1cc(C(=O)Nc2ccc(Cc3ccc(F)c(F)c3)cn2)cn1 [Compound 314] | nM | = | 20 |
| CC(O)c1ccc(C(=O)Nc2ccc(Cc3cccc(Cl)c3)cn2)nc1 (stereo not drawn) [Compound 510] | nM | = | 77 |
| CCc1cc(C(=O)Nc2ccc(Cc3cccc(F)c3)cn2)nn(C)c1=O [Compound 531] | nM | = | 340 |
| Cn1cc(C(=O)Nc2ccc(Cc3cc(C(F)(F)F)ccn3)cn2)ccc1=O [Compound 279] | nM | = | 1960 |
| Cn1cc(NC(=O)c2ccc(Cc3ccc(F)c(F)c3)cn2)ccc1=O [Compound 313] | nM | = | 20 |
| CC(=O)c1ccc(C(=O)Nc2ccc(Cc3ccc(F)c(F)c3)cn2)nn1 [Compound 516] | nM | = | 770 |

###

# MEASUREMENT TARGET: human SCD5 (Homo sapiens)
# Construct: expressed in transfected cells; host or cells: yeast strain with OLE1 deleted, plasmid-borne human SCD5 (selected in SD-Ura)
# MEASUREMENT NOTES: Growth inhibition of yeast strain expressing human SCD5 as sole desaturase (OLE1 deleted), OD600 readout
# Format: cell-based
# CONDITION DETAILS: yeast strain expressing human SCD5 as sole desaturase; growth (OD600) after 40 h at 30° C.; read-out: SCD5 IC50
pIC50: −log10 of the molar value.
Reported pIC50 is given for each of the following molecules.
READOUT NAME: pIC50

| GIVEN SMILES | READOUT NAME | NUMERIC READOUT |
| --- | --- | --- |
| Cn1nc(C(=O)Nc2ccc(Cc3cccc(F)c3)cc2)ccc1=O | pIC50 | 6.24 |
| Cn1nc(C(=O)Nc2ccc(Nc3cccc(F)c3)cn2)ccc1=O | pIC50 | 5.25 |
| Cn1nc(C(=O)Nc2ncc(Cc3cccc(F)c3)s2)ccc1=O | pIC50 | 7.70 |
| COC(=O)c1ccnc(C(=O)Nc2ccc(Cc3cccc(F)c3)cn2)c1 | pIC50 | 6.37 |
| CNCc1ccc(C(=O)Nc2ccc(Cc3cccc(Cl)c3)cn2)cn1 | pIC50 | 5.04 |
| Cn1cc(C(=O)Nc2ccc(Cc3cccc(Cl)c3)cn2)ccc1=O | pIC50 | 8.00 |
| CCn1cc(C(=O)Nc2ccc(Cc3ccc(F)cc3)cn2)ccc1=O | pIC50 | 5.62 |
| Cn1nc(C(=O)Nc2ncc(Cc3ccc(F)c(F)c3)cc2F)ccc1=O | pIC50 | 5.19 |
| Cn1nc(C(=O)Nc2ccc(Cc3cccc(Cl)c3)nn2)ccc1=O | pIC50 | 5.81 |
| O=C(Nc1ccc(Cc2ccc(F)c(F)c2)cn1)c1ccncc1 | pIC50 | 7.25 |
| O=C(Nc1ccc(CC2CCCCC2)cn1)c1ccc(CO)cn1 | pIC50 | 8.00 |
| Cn1cc(C(=O)Nc2ccc(Cc3c(F)cccc3F)cn2)ccc1=O | pIC50 | 5.25 |
| Cc1nccc(C(=O)Nc2ccc(Cc3ccc(F)c(F)c3)cn2)n1 | pIC50 | 7.68 |
| CN1N=C(C(=O)Nc2ccc(Cc3ccc(Cl)c(F)c3)cn2)CCC1=O | pIC50 | 7.10 |
| Cc1cc(C(=O)Nc2ccc(Cc3cccc(F)c3)cn2)nc(C)n1 | pIC50 | 8.00 |
| Cn1nc(C(=O)Nc2ccc(Cc3cc(F)cc(C#N)c3)cn2)ccc1=O | pIC50 | 7.10 |
| CN1N=C(C(=O)Nc2ccc(Cc3cccc(F)c3)s2)CCC1=O | pIC50 | 5.47 |
| CNC(=O)c1ccnc(NC(=O)c2ccc(Cc3cccc(F)c3)cn2)c1 | pIC50 | 8.00 |
| COc1cc(Cl)cc(Cc2ccc(NC(=O)c3ccc(=O)n(C)n3)nc2)c1 | pIC50 | 7.70 |

Data credit: patent US20230078764A1
